Data provenance: ChEMBL document CHEMBL3608260

Item-by-item account of pEC50
Assayed target: Delta-type opioid receptor (Homo sapiens, UniProt P41143)
Sequence (P41143 whole entry): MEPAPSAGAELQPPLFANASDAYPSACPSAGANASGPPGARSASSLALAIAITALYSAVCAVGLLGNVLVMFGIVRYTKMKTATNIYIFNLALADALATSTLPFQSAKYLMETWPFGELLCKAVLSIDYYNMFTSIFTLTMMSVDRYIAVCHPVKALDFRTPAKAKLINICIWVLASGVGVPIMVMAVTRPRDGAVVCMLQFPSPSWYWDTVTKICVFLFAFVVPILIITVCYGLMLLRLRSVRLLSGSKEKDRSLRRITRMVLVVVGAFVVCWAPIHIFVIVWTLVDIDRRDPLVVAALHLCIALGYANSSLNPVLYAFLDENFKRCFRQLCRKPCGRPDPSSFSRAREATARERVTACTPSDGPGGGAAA
Test summary: Agonist activity at human delta opioid receptor transfected in HN9.10 cells by [35S]GTPgammaS binding assay
As a rule, pEC50 stands for the negative log10 of the concentration, concentration in M.

Cc1cc(O)cc(C)c1C[C@H](N)C(=O)N[C@H](C)C(=O)N[C@@H](Cc1c[nH]c2ccccc12)C(=O)OCc1cc(C(F)(F)F)cc(C(F)(F)F)c1; 7.92

Now turn to the next molecule.
Per the records, this molecule ( `C[C@@H](NC(=O)[C@@H](N)Cc1ccc(O)cc1)C(=O)NCC(=O)N[C@@H](Cc1ccc(F)cc1)C(=O)OCc1cc(C(F)(F)F)cc(C(F)(F)F)c1` ) has pEC50 equal to 8.17
